Assayed system: T1, human glucose-dependent insulinotropic polypeptide receptor (human, UniProt P48546 22-466)
T1 sequence (looked up): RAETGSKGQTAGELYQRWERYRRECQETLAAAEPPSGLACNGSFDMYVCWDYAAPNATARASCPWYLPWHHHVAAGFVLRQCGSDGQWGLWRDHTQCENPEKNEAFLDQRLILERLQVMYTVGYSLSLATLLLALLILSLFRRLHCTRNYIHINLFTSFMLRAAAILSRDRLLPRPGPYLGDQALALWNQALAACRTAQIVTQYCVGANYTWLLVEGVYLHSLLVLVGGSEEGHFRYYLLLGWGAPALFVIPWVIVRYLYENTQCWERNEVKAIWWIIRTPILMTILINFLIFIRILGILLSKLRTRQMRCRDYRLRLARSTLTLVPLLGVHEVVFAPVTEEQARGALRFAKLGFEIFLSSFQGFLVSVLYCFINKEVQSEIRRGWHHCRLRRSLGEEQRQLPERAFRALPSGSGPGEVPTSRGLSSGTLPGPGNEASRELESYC
Measurement protocol: cell-based or functional assay
Where no end group is shown, it is not given here. [ ]: non-standard residue; d: D form. Aib = CC(C)(N)C(=O)O
Measured attribute: hGIPR CRE Luc EC50 (pM)
Expressed in pM, but write only the number.

INSERT INTO results (binder, value_observed) VALUES
  ('H[Aib]HGTFTSDYSILLEKQAAHEFVQWLLEGGPSSGAPPPS-OH (not fully specified (residue 16); printed as H-Aib-HGTFTSDYSILLE-K[(2S)-2-amino-6-[[(2S)-2-amino-6-[[(4S)-4-carboxy-4-(17-carboxyheptadecanoylamino)butanoyl]amino]hexanoyl]amino]hexanoyl]-QAAHEFVQWLLEGGPSSGAPPPS-OH) [Compound No. 56]', 2.3),
  ('H[Aib]HGTFTSDYSILLEKQAAEEFVQWLLEGGPSSGAPPPS-OH (not fully specified (residue 16); printed as H-Aib-HGTFTSDYSILLE-K[(2S)-2-amino-6-[[(2S)-2-amino-6-[[(4S)-4-carboxy-4-(17-carboxyheptadecanoylamino)butanoyl]amino]hexanoyl]amino]hexanoyl]-QAAEEFVQWLLEGGPSSGAPPPS-OH) [Compound No. 51]', 1.8),
  ('Y[Aib]QGTFTSDYSYLLEKQAA[Aib]EFVQWLLEGGPSSGAPPPS-NH2 (not fully specified (residue 16); printed as Y-Aib-QGTFTSDYSYLLE-K[(2S)-2-amino-6-[[(2S)-2-amino-6-[[(4S)-4-carboxy-4-(19-carboxynonadecanoylamino)butanoyl]amino]hexanoyl]amino]hexanoyl]-QAA-Aib-EFVQWLLEGGPSSGAPPPS-NH2) [Compound No. 48]', 9.2),
  ('Y[Aib]QGTFTSDYSIYLEKQAA[Aib]EFVNWLLAGGPSSGAPPPS-NH2 (not fully specified (residue 16); printed as Y-Aib-QGTFTSDYSIYLE-K[(2S)-2-amino-6-[[(2S)-2-amino-6-[[(4S)-4-carboxy-4-[[4-[(19-carboxynonadecanoylamino)methyl]cyclohexanecarbonyl]amino]butanoyl]amino]hexanoyl]amino]hexanoyl]-QAA-Aib-EFVNWLLAGGPSSGAPPPS-NH2) [Compound No. 13]', 2.1),
  ('Y[Aib]QGTFTSDYSIYLEKQAA[Aib]EFVQWLLEGGPSSGAPPPS-NH2 (not fully specified (residue 16); printed as Y-Aib-QGTFTSDYSIYLE-K[2-[2-[2-[[2-[2-[2-[[(4S)-4-carboxy-4-(19-carboxynonadecanoylamino)butanoyl]amino]ethoxy]ethoxy]acetyl]amino]ethoxy]ethoxy]acetyl]-QAA-Aib-EFVQWLLEGGPSSGAPPPS-NH2) [Compound No. 16]', 11.4),
  ('H[Aib]HGTFTSDYSILLEKQAAQEFVQWLLEGGPSSGAPPPS-OH (not fully specified (residue 16); printed as H-Aib-HGTFTSDYSILLE-K[(2S)-2-amino-6-[[(2S)-2-amino-6-[[(4S)-4-carboxy-4-(17-carboxyheptadecanoylamino)butanoyl]amino]hexanoyl]amino]hexanoyl]-QAAQEFVQWLLEGGPSSGAPPPS-OH) [Compound No. 52]', 6.6),
  ('Y[Aib]QGTFTSDYSIYLDKKAA[Aib]EFVNWLLAGGPSSGAPPPS-NH2 (not fully specified (residue 17); printed as Y-Aib-QGTFTSDYSIYLDK-K[2-[2-[2-[[2-[2-[2-[[(4S)-4-carboxy-4-(17-carboxyheptadecanoylamino)butanoyl]amino]ethoxy]ethoxy]acetyl]amino]ethoxy]ethoxy]acetyl]-AA-Aib-EFVNWLLAGGPSSGAPPPS-NH2) [Compound No. 2]', 49.8),
  ('H[Aib]HGTFTSDYSILLEKQAAQEFVQWLLEGGPSSGAPPPS-OH (not fully specified (residue 16); printed as H-Aib-HGTFTSDYSILLE-K[(2S)-2-amino-6-[[(2S)-2-amino-6-[[(4S)-4-carboxy-4-(19-carboxynonadecanoylamino)butanoyl]amino]hexanoyl]amino]hexanoyl]-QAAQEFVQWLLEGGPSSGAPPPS-OH) [Compound No. 53]', 4.8);

As a next step, examine the binder that follows.
binder H[Aib]HGTFTSDYSYYLEKQYA[Aib]EFVQWLLEGGPSSGAPPPS-NH2 (not fully specified (residue 16); printed as H-Aib-HGTFTSDYSYYLE-K[(2S)-2-amino-6-[[(2S)-2-amino-6-[[(4S)-4-carboxy-4-(19-carboxynonadecanoylamino)butanoyl]amino]hexanoyl]amino]hexanoyl]-QYA-Aib-EFVQWLLEGGPSSGAPPPS-NH2) [Compound No. 29] , hGIPR CRE Luc EC50 (pM) observed: 7.2
